- EXPERIMENT_NOTES: Average particle size (ζ-Average) and PDI by dynamic light scattering (Zetasizer Nano ZSP)
- Assay type: physicochemical
- SETUP_CONDITIONS: F7siRNA-loaded LNP, 50:10:38.5:1.5, N/P ratio 6
Label Met when PDI >= 0.03; otherwise Not met.

## Task Textbook exercise: given the entry CCCCCCCCCCCCC(CC)C(=O)OCCCCCCC(O)(CCCCCCOC(=O)C(CC)CCCCCCCCCCCC)CCCCN(CCC)CCC (stereo not shown) , state whether its PDI is greater than or equal to 0.03.
## Result Met

## Task Textbook exercise: given the entry CCCCCCCC/C=C\CCCCCCCC(=O)OCCCCCCC(O)(CCCCCCOC(=O)CCCCCCC/C=C\CCCCCCCC)CCCCOC(=O)C1CCN(C)CC1 [CL15H6, reference compound] , state whether its PDI is greater than or equal to 0.03.
## Result Met

## Task Textbook exercise: given the entry CCCCCCCCCC(CCCCCC)C(=O)OCCCCCCC(O)(CCCCCCOC(=O)C(CCCCCC)CCCCCCCCC)CCCCN(CCC)CCC (stereo not shown) , state whether its PDI is greater than or equal to 0.03.
## Result Met

## Task Textbook exercise: given the entry CCCCCCCCC(CCCCCCCC)C(=O)OCCCCCCC(O)(CCCCCCOC(=O)C(CCCCCCCC)CCCCCCCC)CCCCOC(=O)C1CCN(C)CC1 [CL15F 10-8] , state whether its PDI is greater than or equal to 0.03.
## Result Met

## Task Textbook exercise: given the entry CC(CCC(C(=O)OCCCCCCC(O)(CCCCCCOC(=O)C(CCC(C)CC(C)(C)C)C(C)CC(C)(C)C)CCCCOC(=O)C1CCN(C)CC1)C(C)CC(C)(C)C)CC(C)(C)C (stereo not shown) , state whether its PDI is greater than or equal to 0.03.
## Result Not met

## Task Textbook exercise: given the entry CCCCC(CCCC)C(=O)OCCCCCCC(O)(CCCCCCOC(=O)C(CCCC)CCCC)CCCCOC(=O)C1CCN(C)CC1 [CL15F 6-4] , state whether its PDI is greater than or equal to 0.03.
## Result Met

## Task Textbook exercise: given the entry CCCCCCCCCC(CCCCCC)C(=O)OCCCCCCC(O)(CCCCCCOC(=O)C(CCCCCC)CCCCCCCCC)CCCCOC(=O)C1CCN(C)CC1 (stereo not shown) [CL15F 11-6] , state whether its PDI is greater than or equal to 0.03.
## Result Not met

## Task Textbook exercise: given the entry CCCCCCCC(CCCCCCC)C(=O)OCCCCCCC(O)(CCCCCCOC(=O)C(CCCCCCC)CCCCCCC)CCCCOC(=O)C1CCN(C)CC1 [CL15F 9-7] , state whether its PDI is greater than or equal to 0.03.
## Result Not met

## Task Textbook exercise: given the entry CCCCCCCCCCCC(CCC)C(=O)OCCCCCCC(O)(CCCCCCOC(=O)C(CCC)CCCCCCCCCCC)CCCCN(CCC)CCC (stereo not shown) , state whether its PDI is greater than or equal to 0.03.
## Result Not met

## Task Textbook exercise: given the entry CCCCCCCCC(CCCCC)C(=O)OCCCCCCC(O)(CCCCCCOC(=O)C(CCCCC)CCCCCCCC)CCCCOC(=O)C1CCN(C)CC1 (stereo not shown) [CL15F 10-5] , state whether its PDI is greater than or equal to 0.03.
## Result Not met

***
## Task Textbook exercise: given the entry CCCCCCCCCCCCCCC(C)C(=O)OCCCCCCC(O)(CCCCCCOC(=O)C(C)CCCCCCCCCCCCCC)CCCCOC(=O)C1CCN(C)CC1 (stereo not shown) [CL15F 16-1] , state whether its PDI is greater than or equal to 0.03.
## Result Met

## Task Textbook exercise: given the entry CCCCCCCCC(CC)C(=O)OCCCCCCC(O)(CCCCCCOC(=O)C(CC)CCCCCCCC)CCCCN(CCC)CCC (stereo not shown) , state whether its PDI is greater than or equal to 0.03.
## Result Not met

## Task Textbook exercise: given the entry CCCCCCC(CCCCC)C(=O)OCCCCCCC(O)(CCCCCCOC(=O)C(CCCCC)CCCCCC)CCCCN(CCC)CCC (stereo not shown) , state whether its PDI is greater than or equal to 0.03.
## Result Met

Source listed as patent US12458605B2.
